assay: Biodistribution in rats; type: in vivo, male Sprague-Dawley rats; conditions: rat, iv, 30 min p.i., mean ± SD, n = 4
parameter-measured: kidney uptake

Example entries and their recorded answers appear below.
- molecule: "Cn1cc(-c2ccncc2)c(-c2ccc(OCc3cc(CCC[18F])c4ccccc4n3)cc2)n1 [[^18F]18c]"
  kidney uptake: "1.364 ± 0.077 %ID/g"
- molecule: "Cn1cc(-c2ccncc2)c(-c2ccc(OCc3cc([18F])c4ccccc4n3)cc2)n1 [[^18F]18a]"
  kidney uptake: "1.034 ± 0.131 %ID/g"
- molecule: "Cn1cc(-c2ccncc2)c(-c2ccc(OCc3cc(OCCOCCOCC[18F])c4ccccc4n3)cc2)n1 [[^18F]18g]"
  kidney uptake: "1.793 ± 0.291 %ID/g"

Now, please, on to the next molecule.
[ask] Request the reported kidney uptake associated with Cn1cc(-c2ccncc2)c(-c2ccc(OCc3cc(OCC[18F])c4ccccc4n3)cc2)n1 [[^18F]18d]
[reply] 1.055 ± 0.218 %ID/g
